Overview of reported Tmax across a group of molecules:
# Experiment summary: Pharmacokinetic study in atherosclerosis (AS) model ApoE−/− mice after oral administration of SMYAD
# Format: in vivo, mouse
# Test context: male, ApoE−/− on a C57BL/6 background, mouse, in vivo, po, 35 g/kg/day
Quantity name: Tmax (min)

O=C1C[C@@H](c2ccc(O[C@@H]3O[C@H](CO)[C@@H](O)[C@H](O)[C@H]3O)cc2)Oc2cc(O)ccc21 ... 45
C=C[C@H]1[C@H](O[C@@H]2O[C@H](CO)[C@@H](O)[C@H](O)[C@H]2O)OC=C2C(=O)OCC[C@H]21 [Sweroside, sweroside] ... 54

----------
Overview of reported AUC(0-inf) across a group of molecules:
# Experiment summary: Pharmacokinetic study in normal control (NC) mice after oral administration of SMYAD
# Format: in vivo, mouse
# Test context: male, C57BL/6J, mouse, in vivo, po, 35 g/kg/day
Quantity name: AUC(0-inf) (ng·h/mL)

C=C[C@H]1[C@H](O[C@@H]2O[C@H](CO)[C@@H](O)[C@H](O)[C@H]2O)OC=C2C(=O)OCC[C@H]21 [Sweroside, sweroside] ... 7080
O=C1C[C@@H](c2ccc(O[C@@H]3O[C@H](CO)[C@@H](O)[C@H](O)[C@H]3O)cc2)Oc2cc(O)ccc21 ... 760

----------
# Experiment summary: Pharmacokinetic study in atherosclerosis (AS) model ApoE−/− mice after oral administration of SMYAD
# Type: in vivo, mouse
# Test context: male, ApoE−/− on a C57BL/6 background, mouse, po, 35 g/kg/day; AS mice, plasma, SMYAD intragastric 35 g/kg/d for seven days, mean ± SD, n = 5; read-out: t max
Overview of reported Tmax across a group of compounds:
Quantity name: Tmax (min)

C=C[C@H]1[C@H](O[C@@H]2O[C@H](CO)[C@@H](O)[C@H](O)[C@H]2O)OC=C2C(=O)OCC[C@]21O ... 54
COc1ccc(CCO[C@@H]2O[C@H](CO[C@@H]3OC[C@H](O)[C@H](O)[C@H]3O)[C@@H](OC(=O)/C=C/c3ccc(O)c(OC)c3)[C@H](O[C@@H]3O[C@@H](C)[C@H](O)[C@@H](O)[C@H]3O)[C@H]2O)cc1O [Angoroside C, angoroside C] ... 123
O=C(/C=C/c1ccc(O)cc1)c1ccc(O)cc1O ... 57
O=C(/C=C/c1ccc(O)c(O)c1)O[C@@H]1C[C@](O)(C(=O)O)C[C@@H](O)[C@H]1O ... 15

----------
# Experiment summary: Pharmacokinetic study in normal control (NC) mice after oral administration of SMYAD
# Type: in vivo, mouse
# Test context: male, C57BL/6J, mouse, po, 35 g/kg/day; NC mice, plasma, SMYAD intragastric 35 g/kg/d for seven days, mean ± SD, n = 5; read-out: t 1/2 (converted)
Overview of reported half-life across a group of molecules:
Quantity name: half-life

C=C[C@H]1[C@H](O[C@@H]2O[C@H](CO)[C@@H](O)[C@H](O)[C@H]2O)OC=C2C(=O)OCC[C@]21O ... 4.43 h
O=C(/C=C/c1ccc(O)c(O)c1)O[C@@H]1C[C@](O)(C(=O)O)C[C@@H](O)[C@H]1O ... 4.51 h
O=C(/C=C/c1ccc(O)cc1)c1ccc(O)cc1O ... 6.65 h
COc1ccc(CCO[C@@H]2O[C@H](CO[C@@H]3OC[C@H](O)[C@H](O)[C@H]3O)[C@@H](OC(=O)/C=C/c3ccc(O)c(OC)c3)[C@H](O[C@@H]3O[C@@H](C)[C@H](O)[C@@H](O)[C@H]3O)[C@H]2O)cc1O [Angoroside C, angoroside C] ... 7.4 h
